Overview of recorded TGI for various compounds
Test system: NCI-H226 lung
Assay: NCI tumour cell line growth inhibition, 48 h

Compound: CC(=O)[CH-]C(=O)c1ccccc1.CC(=O)[CH-]C(=O)c1ccccc1.CC[O-].O=C1c2ccccc2C(=O)c2c1ccc(O)c2[O-].[Ti+4]
TGI: > 100 µM
--
Compound: Cc1cc(Nc2cc(N)ncn2)c(=O)n2c1C(=O)NC21CCCCC1
TGI: > 100 µM
--
Compound: CN(C)CCCn1c(-c2nonc2N)nc2cnccc21
TGI: > 25 µM
--
Compound: O=C(O)c1cc2ccccc2c2c1C(=O)c1ccccc1-2
TGI: > 100 µM
--
Compound: CC[C@H](C)C(=O)O[C@H]1C[C@H](O)C=C2C=C[C@H](C)[C@H](CC[C@@H](O)C[C@@H](O)CC(=O)O)[C@H]21
TGI: > 100 µM
--
Compound: CN(Cc1cc(Cl)c(Cl)cc1NC(=O)CN)[C@H]1CCCC[C@@H]1N1CCCC1
TGI: > 100 µM
--
Compound: O=C1CC2CCC(C1)S2=O (stereo unspecified)
TGI: > 100 µM
--
Compound: CC(C)(C)OC(=O)NCC(=O)N1CCN(C(=O)CNC(=O)OC(C)(C)C)CC1
TGI: > 100 µM
--
Compound: C=CC1=C(C)C2=NC1=CC1=NC(=C(CC)/C1=C\O)C=C1N=C3C(=C1C)C(=O)[C@H](C(=O)OC)C3=C1NC(=C2)[C@@H](C)[C@@H]1CCC(=O)O
TGI: > 100 µM
--
Compound: Nc1ncc(-c2cccc(S(N)(=O)=O)c2)c2scc(-c3ccc(F)c(Cl)c3)c12
TGI: 15.1 µM
--
Compound: Cc1cc(S(=O)(=O)/N=C(/NN)NNc2cccc(C(F)(F)F)n2)c(S)cc1Cl
TGI: 46 µM
--
Compound: O=c1ccc2nc(-c3ccccn3)nn(-c3ccccc3)c-2c1
TGI: 11.9 µM
--
Compound: CC(=O)c1c2n(n(-c3ccccc3)c1=O)C(=O)c1nccnc1-2
TGI: > 100 µM
--
Compound: CC(C)(C)CC(C)(C)c1ccc(O)c(C[N+](C)(C)[O-])c1
TGI: > 100 µM
--
Compound: CCCCNC(=O)/N=C/c1c(O)c2ccccc2oc1=O
TGI: > 100 µM
--
Compound: O=C(O)C(Oc1nc(=S)[nH]c(=S)[nH]1)(c1ccc(Cl)cc1)c1ccc(Cl)cc1
TGI: > 100 µM
--
Compound: CC1(C)N=C(c2ccccn2)C(c2ccccn2)=NC1(C)C
TGI: > 100 µM
--
Compound: CCCCCCCCCCC(C)CCCCCCC(=O)O (stereo unspecified)
TGI: > 100 µM
--
Compound: C=C1CN(C2=NCCO2)C1
TGI: > 100 µM
--
Compound: Cc1cc(C(=O)c2ccccc2)c(C)c2c1[nH]c1ccc(Cl)cc12
TGI: 15.6 µM
--
Compound: CCOC(=O)/C=C(\C(=O)OCC)n1ccc(=O)[nH]c1=O
TGI: > 39.1 µM

---

System: UO-31 renal
Assay: NCI tumour cell line growth inhibition, 48 h

Molecule: Cn1cc(C2=C(N3CCOCC3)C(=O)NC2=O)c2ccccc21
TGI: > 25 µM
--
Molecule: CC(=O)N/C(=C\c1ccc(Cc2nc3c([nH]2)C(=O)c2ccccc2C3=O)cc1)c1nc2c([nH]1)C(=O)c1ccccc1C2=O
TGI: > 100 µM
--
Molecule: NCCCNCCCCN1CC1
TGI: > 100 µM
--
Molecule: CC(=O)[O-].O=C([CH-]C(=O)c1ccccc1)c1ccccc1.O=C([CH-]C(=O)c1ccccc1)c1ccccc1.[Sm+3]
TGI: 12.5 µM
--
Molecule: CCCCCCCCCCC(C)CCCCCCC(=O)O (stereo not given)
TGI: > 100 µM
--
Molecule: Cc1ccc(CCC(=O)C(=O)O)s1
TGI: > 100 µM
--
Molecule: CC(C)(C)c1ccc(NS(=O)(=O)c2ccc3nc(NC(=O)c4cnccn4)[nH]c3c2)cc1
TGI: 10.7 µM
--
Molecule: OCCN1CCN(CC/C=C2/c3ccccc3Sc3ccc(Cl)cc32)CC1
TGI: 27.3 µM
--
Molecule: C[C@@H](Nc1nc(Nc2ccc(F)c(Cl)c2)nc2ccccc12)C1CC1
TGI: 14 µM
--
Molecule: O=[N+]([O-])c1cccc2nccc(NCCCO)c12
TGI: 35.3 µM

---

Test system: NCI-H522 lung
Assay: NCI tumour cell line growth inhibition, 48 h

Compound: O=c1c2ccccc2nc(N/N=C/c2ccccc2O)n1-c1ccccc1
TGI: 74.7 µM
//
Compound: N#CC(C#N)=C1C(=O)NC(N)=C1C#N
TGI: > 100 µM
//
Compound: COc1cccc2c1n([O-])c1cccc(OC)c1[n+]2=O
TGI: 28.1 µM
//
Compound: OCCN1CCN(CC/C=C2/c3ccccc3Sc3ccc(Cl)cc32)CC1
TGI: 30.1 µM
//
Compound: O=NN(CCCl)C(=O)NC1CCC(CC2CCC(NC(=O)N(CCCl)N=O)CC2)CC1 (stereo not given)
TGI: 48.3 µM

---

Tested on: UACC-62 melanoma
Test: NCI tumour cell line growth inhibition, 48 h; in the data active means GI50 below about 0.43 µM; inactive means the rest
Outcomes: active, inactive

Compound: Cc1ccc(-c2cc(O)c(-c3ccc(C)cc3C)cc2O)c(C)c1
Assigned Label: inactive

Compound: COc1c(B(O)O)cc(F)cc1-c1nc2ccc3[nH]ncc3c2c2c1CCCC2
Assigned Label: inactive

Compound: N=C(N)c1ccc(-c2ccc(-c3ccc(Cl)cc3Cl)s2)cc1
Assigned Label: inactive

Compound: CC(=O)c1nc2ccccc2n1CC(=O)c1cccc(Cl)c1
Assigned Label: active

Compound: O=C(NC(=S)Nc1cc(Cl)ccc1O)c1cccc(Br)c1
Assigned Label: inactive

Compound: N#CC1C=Cc2c(ccc3ccccc23)N1C(=O)c1ccccc1 (stereo unspecified)
Assigned Label: active

Compound: Cc1cc(I)cc(CN(C)CCCN2CCN(C)CC2)c1O
Assigned Label: inactive

Compound: NC(=S)NN=C1CSSC1
Assigned Label: inactive

Compound: CCC[CH2][Sn]1([CH2]CCC)[O]CC(C)[O]1 (stereo unspecified)
Assigned Label: inactive

Compound: Oc1ccc(N=Nc2ccccn2)c(O)c1
Assigned Label: inactive

Compound: CC(=O)[O-].O=C([CH-]C(=O)c1ccccc1)c1ccccc1.O=C([CH-]C(=O)c1ccccc1)c1ccccc1.[Sm+3]
Assigned Label: inactive

---

System: SK-MEL-28 melanoma
Experiment: NCI tumour cell line growth inhibition, 48 h
Overview of recorded TGI for various compounds
Endpoint Label: TGI

Compound: Brc1ccc2c(-c3csc(-c4c[nH]c5ccccc45)n3)c[nH]c2c1
Tested On: SK-MEL-28 melanoma
Measured Value: 31 µM

Compound: Brc1cc2c(cc1Br)CN(c1ccccc1)C2
Tested On: SK-MEL-28 melanoma
Measured Value: > 100 µM

Compound: C=CCn1c(-c2ccc([N+](=O)[O-])cc2)csc1=N
Tested On: SK-MEL-28 melanoma
Measured Value: > 100 µM

Compound: CCC[CH2][Sn]1([CH2]CCC)[O]CC(C)[O]1 (configuration not stated)
Tested On: SK-MEL-28 melanoma
Measured Value: 3.96 µM

Compound: NCCCNCCCCN1CC1
Tested On: SK-MEL-28 melanoma
Measured Value: > 20.1 µM

Compound: CCCCCCCCCCC(C)CCCCCCC(=O)O (configuration not stated)
Tested On: SK-MEL-28 melanoma
Measured Value: > 100 µM

Compound: CN1C/C(=C\C=C\c2ccccc2)C(=O)/C(=C/C=C/c2ccccc2)C1
Tested On: SK-MEL-28 melanoma
Measured Value: > 100 µM

Compound: CCN(CC)c1ccc(/C=C/C=C2\NC(=O)NC2=O)cc1
Tested On: SK-MEL-28 melanoma
Measured Value: > 100 µM

Compound: CN(C)CCCNCc1cccc2ccccc12
Tested On: SK-MEL-28 melanoma
Measured Value: > 100 µM

Compound: O=C1c2ccccc2C(=O)c2[nH]c(Cc3ccc(F)cc3)nc21
Tested On: SK-MEL-28 melanoma
Measured Value: 35 µM

Compound: CCSc1ccc(C2C(Br)C(=O)N2c2cc(OC)c(OC)c(OC)c2)cc1 (configuration not stated)
Tested On: SK-MEL-28 melanoma
Measured Value: 30 µM

Compound: COc1cc(Br)c(CC2C3=C(CCN2C(=O)C2CCC2)CC(=O)CC3)cc1O (configuration not stated)
Tested On: SK-MEL-28 melanoma
Measured Value: > 100 µM

---

System: HT29 colon
Assay: NCI tumour cell line growth inhibition, 48 h; in the data active = GI50 below about 0.43 µM; inactive = the rest
Outcomes: active, inactive

Molecule Smiles: Cc1cc(C(=O)c2ccccc2)c(C)c2c1[nH]c1ccc(Cl)cc12
Assigned Label: active

Molecule Smiles: CCCCCn1c(C)cc(/C=C\c2ccc3cc(C)ccc3[n+]2C)c1C
Assigned Label: active

Molecule Smiles: CCN(CC)C(=S)[S][Bi]([S]C(=S)N(CC)CC)[S]C(=S)N(CC)CC
Assigned Label: active

Molecule Smiles: CC[C@H](C)C(=O)O[C@H]1C[C@H](O)C=C2C=C[C@H](C)[C@H](CC[C@@H](O)C[C@@H](O)CC(=O)O)[C@H]21
Assigned Label: inactive

Molecule Smiles: CS(=O)(=O)N(c1cc(-c2ccc3ncnc(Nc4cccc(Cl)c4)c3c2)cnc1Cl)S(C)(=O)=O
Assigned Label: active

Molecule Smiles: CC(=O)c1nc2ccccc2n1CC(=O)c1cccc(Cl)c1
Assigned Label: inactive

Molecule Smiles: C/C(=N\NC(=S)N(C)C)c1ccccn1
Assigned Label: active

Molecule Smiles: Cc1cc(Nc2cc(N)ncn2)c(=O)n2c1C(=O)NC21CCCCC1
Assigned Label: inactive

Molecule Smiles: CN(C)/N=N/c1nc[nH]c1C(N)=O
Assigned Label: inactive

Molecule Smiles: C=C1C(=O)O[C@H]2[C@H]1CC/C(COC(=O)NCc1ccc(Cn3c(=O)sn(-c4ccccc4)c3=O)cc1)=C\CC[C@@]1(C)O[C@@H]21
Assigned Label: inactive

Molecule Smiles: Cc1ccc([C@]2(C)CC[C@H](C)/C2=C\Br)c(O)c1
Assigned Label: inactive

Molecule Smiles: NC(=S)NN=C1CSSC1
Assigned Label: inactive

Molecule Smiles: Nc1ncc(-c2cccc(S(N)(=O)=O)c2)c2scc(-c3ccc(F)c(Cl)c3)c12
Assigned Label: inactive

Molecule Smiles: O=C(c1ccccc1)c1c(C(F)(F)F)n([O-])c2ccc(C(F)(F)F)cc2[n+]1=O
Assigned Label: active

Molecule Smiles: Nc1c(C(=O)Nc2cccc(Cl)c2Cl)sc2nc3c(cc12)C(=O)CCC3
Assigned Label: inactive

Molecule Smiles: O=Nc1c(-c2c(O)[nH]c3ccc(Br)cc23)[nH]c2ccccc12
Assigned Label: inactive
